- ASSAYED TARGET: substance P receptor (Homo sapiens, UniProt P25103)
- Construct: The receptor was prepared from human lymphoblast cells (IM-9); endogenous in cells
- Sequence (P25103 whole entry): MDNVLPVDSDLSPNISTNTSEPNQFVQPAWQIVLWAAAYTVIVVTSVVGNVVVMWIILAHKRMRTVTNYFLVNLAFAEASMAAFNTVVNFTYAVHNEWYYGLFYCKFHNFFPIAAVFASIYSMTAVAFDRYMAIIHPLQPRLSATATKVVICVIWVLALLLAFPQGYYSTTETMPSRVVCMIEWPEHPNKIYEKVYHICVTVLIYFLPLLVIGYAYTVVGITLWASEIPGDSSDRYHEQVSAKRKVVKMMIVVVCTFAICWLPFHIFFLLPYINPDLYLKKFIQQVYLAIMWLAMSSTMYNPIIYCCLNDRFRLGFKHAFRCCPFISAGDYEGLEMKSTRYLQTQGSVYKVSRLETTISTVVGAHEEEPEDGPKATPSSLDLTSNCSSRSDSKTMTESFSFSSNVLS
- METHOD SUMMARY: Radioligand receptor binding inhibitory activity (125I-BHSP binding, receptor from IM-9 cells)
- EXPERIMENTAL SETUP: receptor from human lymphoblast cells (IM-9); radioligand 125I-BHSP; 25° C., 30 min
pIC50: −log10 of the molar value. Where a name gives a salt, the structure may show the parent alone.
MEASUREMENT KIND: pIC50

| MOLECULE | READOUT NUMBER |
| --- | --- |
| Cc1cc(F)ccc1[C@H]1CN(C(=O)CCS(C)(=O)=O)CC[C@@H]1C(=O)N(C)[C@@H](C)c1cc(C(F)(F)F)cc(C(F)(F)F)c1 [Example 160] | 10.49 |

I. Cc1cc(F)ccc1[C@@H]1CN(C2CCN(C(=O)C(N)=O)CC2)CC[C@H]1C(=O)N(C)Cc1cc(C(F)(F)F)cc(C(F)(F)F)c1 (relative stereo) [Example 108, monohydrochloride]
II. Cc1cc(F)ccc1[C@H]1CN(S(=O)(=O)C2CC2)CC[C@@H]1C(=O)N(C)[C@@H](C)c1cc(C(F)(F)F)cc(C(F)(F)F)c1 [Example 162]
Q: Kindly identify which of I and II has the larger recorded pIC50 value. Indicate your choice by writing its label.
A: I
(I: 10.59, II: 10.09)

----------
Counter-ions that a name gives are not always drawn.
# key: entry, value: melting point

Consider the following illustrative entries.
| COMPOUND | melting point |
| --- | --- |
| Cc1cc(F)ccc1[C@@H]1CN(S(=O)(=O)N(C)C)CC[C@H]1C(=O)N(C)Cc1cc(C(F)(F)F)cc(C(F)(F)F)c1 (relative stereo) | 142 to 144 °C |
| Cc1cc(F)ccc1[C@@H]1CN(C(C)(C)C(N)=O)CC[C@H]1C(=O)N(C)Cc1cc(C(F)(F)F)cc(C(F)(F)F)c1 (relative stereo) (as salt: hydrochloride) [Example 113, monohydrochloride] | 209 to 211 °C |
| CCOCCS(=O)(=O)N1CC[C@@H](C(=O)N(C)Cc2cc(C(F)(F)F)cc(C(F)(F)F)c2)[C@H](c2ccc(F)cc2C)C1 (relative stereo) | 151 to 153 °C |

Q: Please look at this compound and report its melting point: Cc1cc(F)ccc1[C@@H]1CN(C2=CC(=O)CC2)CC[C@H]1C(=O)N(C)Cc1cc(C(F)(F)F)cc(C(F)(F)F)c1 (relative stereo)
A: 192 to 193 °C

Q: Complete the entry with melting point for CCS(=O)(=O)N1CC[C@@H](C(=O)N(C)Cc2cc(C(F)(F)F)cc(C(F)(F)F)c2)[C@H](c2ccc(F)cc2C)C1 (relative stereo)
A: 170 to 171 °C

----------
Overview of reported melting point across a group of molecules:
Structures can show the parent of a compound that is named as a salt.

| MOLECULE | RESULT |
| --- | --- |
| Cc1cc(F)ccc1[C@H]1CN(S(=O)(=O)C2CC2)CC[C@@H]1C(=O)N(C)[C@@H](C)c1cc(C(F)(F)F)cc(C(F)(F)F)c1 [Example 162] | 154 to 156 °C |
| Cc1cc(F)ccc1[C@H]1CN(C(=O)c2cncnc2)CC[C@@H]1C(=O)N(C)[C@@H](C)c1cc(C(F)(F)F)cc(C(F)(F)F)c1 (hydrate or solvate) [Example 158] | 185 to 188 °C |
| Cc1cc(F)ccc1[C@@H]1CN(CC(=O)N2CCC(O)CC2)CC[C@H]1C(=O)N(C)Cc1cc(C(F)(F)F)cc(C(F)(F)F)c1 (relative stereo) (as salt: hydrochloride) [Example 104, monohydrochloride] | 220 to 224 °C |
| Cc1cc(F)ccc1[C@@H]1CN(CC(=O)NC2CC2)CC[C@H]1C(=O)N(C)Cc1cc(C(F)(F)F)cc(C(F)(F)F)c1 (relative stereo) (as salt: hydrochloride) [Example 103, monohydrochloride] | 210 to 214 °C |

# evaluate next
Q: Report measured melting point; entry is CC(=O)Nc1ccc(N2CC[C@@H](C(=O)N(C)Cc3cc(C(F)(F)F)cc(C(F)(F)F)c3)[C@H](c3ccc(F)cc3C)C2)nc1 (relative stereo) (as salt: hydrochloride) (hydrate or solvate) [Example 129, monohydrochloride]
A: 213 to 215 °C

----------
Where a name gives a salt, the structure may show the parent alone.
# Lookup of reported melting point keyed by entry

// below: answered compounds
| COMPOUND | melting point |
| --- | --- |
| Cc1cc(F)ccc1[C@@H]1CN(C2CCN(C(N)=O)CC2)CC[C@H]1C(=O)N(C)Cc1cc(C(F)(F)F)cc(C(F)(F)F)c1 (relative stereo) (as salt: hydrochloride) (hydrate or solvate) [Example 109, monohydrochloride] | 175 to 178 °C |
| Cc1ccccc1[C@@H]1CN(C(=O)C2CCN(C(=O)CO)CC2)CC[C@H]1C(=O)N(C)Cc1cc(C(F)(F)F)cc(C(F)(F)F)c1 (relative stereo) [Example 16] | 173 to 174 °C |
| Cc1cc(F)ccc1[C@@H]1CN(C(C)CO)CC[C@H]1C(=O)N(C)Cc1cc(C(F)(F)F)cc(C(F)(F)F)c1 (relative stereo) (as salt: hydrochloride) [Example 120, monohydrochloride] | 234 to 236 °C |

Shifting focus to the compound that follows.
Q: Please report the measured melting point for Cc1cc(F)ccc1[C@@H]1CN(S(=O)(=O)CCN2CCOCC2)CC[C@H]1C(=O)N(C)Cc1cc(C(F)(F)F)cc(C(F)(F)F)c1 (relative stereo) (as salt: hydrochloride) [Example 139, monohydrochloride]
A: 196 to 198 °C

----------
Each entry below carries its recorded melting point.
Structures can show the parent of a compound that is named as a salt.

| COMPOUND | RESULT |
| --- | --- |
| Cc1cc(F)ccc1[C@@H]1CN(C2=CC(=O)C(C)(C)CC2)CC[C@H]1C(=O)N(C)Cc1cc(C(F)(F)F)cc(C(F)(F)F)c1 (relative stereo) | 137 to 138 °C |

Q: Indicate its recorded melting point; the compound in question is Cc1cc(F)ccc1[C@@H]1CN(S(=O)(=O)c2ccccn2)CC[C@H]1C(=O)N(C)Cc1cc(C(F)(F)F)cc(C(F)(F)F)c1 (relative stereo)
A: 187 to 189 °C

Q: Give the value of melting point reported for the following: Cc1cc(F)ccc1[C@@H]1CN(CCC(C)(C)O)CC[C@H]1C(=O)N(C)Cc1cc(C(F)(F)F)cc(C(F)(F)F)c1 (relative stereo) (as salt: hydrochloride) (hydrate or solvate) [Example 123, monohydrochloride]
A: 126 to 128 °C

----------
- ASSAYED TARGET: substance P receptor (Homo sapiens)
- Construct: The receptor was prepared from human lymphoblast cells (IM-9); endogenous in cells
- METHOD SUMMARY: Radioligand receptor binding inhibitory activity (125I-BHSP binding, receptor from IM-9 cells)
- EXPERIMENTAL SETUP: receptor from human lymphoblast cells (IM-9); radioligand 125I-BHSP; 25° C., 30 min
- Description: Radioligand Receptor Binding Inhibitory Activity (Binding Inhibitory Activity Using Receptor from Human Lymphoblast Cells (IM-9)) The method of M. A. Cascieri et al., “Molecular Pharmacology, vol. 42, p. 458 (1992)” was modified and used. The receptor was prepared from human lymphoblast cells (IM-9). IM-9 cells (2×10^5 cells/mL) were inoculated and incubated for 3 days, which was then subjected to centrifugation for 10 min. at 500×G to give cell pellets. […]
pIC50: −log10 of the molar value. Where a name gives a salt, the structure may show the parent alone.
MEASUREMENT KIND: pIC50

Please review the following examples before continuing.
| COMPOUND | pIC50 |
| --- | --- |
| Cc1cc(F)ccc1[C@H]1CN(C(=O)CN2C(=O)OC(C)(C)C2=O)CC[C@@H]1C(=O)N(C)Cc1cc(C(F)(F)F)cc(C(F)(F)F)c1 | 10.22 |
| CCS(=O)(=O)N1CC[C@@H](C(=O)N(C)Cc2cc(C(F)(F)F)cc(C(F)(F)F)c2)[C@H](c2ccc(F)cc2C)C1 (relative stereo) | 10.40 |

1. Cc1cc(F)ccc1[C@H]1CN(C(=O)C2CCN(C(=O)[C@@H](C)O)CC2)CC[C@@H]1C(=O)N(C)Cc1cc(C(F)(F)F)cc(C(F)(F)F)c1
2. Cc1cc(F)ccc1[C@@H]1CN(CC(=O)NC2CC2)CC[C@H]1C(=O)N(C)Cc1cc(C(F)(F)F)cc(C(F)(F)F)c1 (relative stereo) [Example 103, monohydrochloride]
Q: Which of the two gives a bigger number for pIC50: 1 or 2 ? Bench note: the answer is the label of the chosen record.
A: 1

----------
- ASSAYED TARGET: substance P receptor (Homo sapiens)
- Construct: The receptor was prepared from human lymphoblast cells (IM-9); endogenous in cells
- METHOD SUMMARY: Radioligand receptor binding inhibitory activity (125I-BHSP binding, receptor from IM-9 cells)
- EXPERIMENTAL SETUP: receptor from human lymphoblast cells (IM-9); radioligand 125I-BHSP; 25° C., 30 min
Counter-ions that a name gives are not always drawn.
MEASUREMENT KIND: IC50 (nM)

| MOLECULE | UNIT ABBREV | IC50 |
| --- | --- | --- |
| Cc1cc(F)ccc1[C@@H]1CN(C(C)(C)C(N)=O)CC[C@H]1C(=O)N(C)Cc1cc(C(F)(F)F)cc(C(F)(F)F)c1 (relative stereo) [Example 113, monohydrochloride] | nM | 0.061 |
| Cc1cc(F)ccc1[C@@H]1CN(C2=CC(=O)C(C)(C)CC2)CC[C@H]1C(=O)N(C)Cc1cc(C(F)(F)F)cc(C(F)(F)F)c1 (relative stereo) | nM | 0.06 |
| Cc1cc(F)ccc1[C@@H]1CN(C2=CC(=O)CC2)CC[C@H]1C(=O)N(C)Cc1cc(C(F)(F)F)cc(C(F)(F)F)c1 (relative stereo) | nM | 0.06 |
